Cited source for all entries: patent US20260083865A1

Biological target: Fc-fusion protein of human PSMA (hPSMA-Fc) (Homo sapiens, UniProt Q04609)
Construct: purchased Acro Biosystems PSA-H5264
Sequence (Q04609 44-750 limits assumed): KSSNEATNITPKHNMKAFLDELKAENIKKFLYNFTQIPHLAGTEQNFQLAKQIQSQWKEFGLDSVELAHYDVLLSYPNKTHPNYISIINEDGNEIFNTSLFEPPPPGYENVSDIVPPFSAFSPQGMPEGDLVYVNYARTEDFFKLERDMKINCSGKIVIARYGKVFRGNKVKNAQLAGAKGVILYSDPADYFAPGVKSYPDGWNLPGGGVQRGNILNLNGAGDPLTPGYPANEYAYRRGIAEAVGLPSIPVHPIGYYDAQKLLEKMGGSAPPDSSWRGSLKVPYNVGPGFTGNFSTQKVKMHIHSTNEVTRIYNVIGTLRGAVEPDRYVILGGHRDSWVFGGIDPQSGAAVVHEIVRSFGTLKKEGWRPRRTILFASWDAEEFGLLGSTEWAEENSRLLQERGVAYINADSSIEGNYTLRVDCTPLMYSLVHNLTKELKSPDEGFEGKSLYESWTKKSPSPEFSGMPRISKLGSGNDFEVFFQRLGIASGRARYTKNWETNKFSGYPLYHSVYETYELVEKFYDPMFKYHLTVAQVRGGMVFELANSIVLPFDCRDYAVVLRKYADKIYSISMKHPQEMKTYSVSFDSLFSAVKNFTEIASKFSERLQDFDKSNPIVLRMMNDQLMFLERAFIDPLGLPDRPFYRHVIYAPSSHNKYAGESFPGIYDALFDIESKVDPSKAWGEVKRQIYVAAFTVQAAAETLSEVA
Test: Surface plasmon resonance assay (Biacore T200, single cycle kinetic)
Assay type: binding
Conditions: PSMA SPR assay, hPSMA-Fc, 25° C.; pKD category; read-out: pKD CAT (converted)
Description: Surface plasmon resonance (SPR) studies were performed using a Biacore™ T200 SPR system. Briefly, polarized light is directed towards a gold-labeled sensor surface, and minimum intensity reflected light is detected. […] For each test compound, SPR raw data in the form of resonance units (RU) were plotted as sensorgrams using the Biacore™ T200 control software. […] The pKD value (negative decadic logarithm of dissociation constant) was calculated using Microsoft Excel.
Numbered stars: 1 amine (or outer) side, 2 acyl side, 3 side chain; on linkers, the order of the positions; unused ones are H or OH. Bridge positions count the residues as written; N and C are the ends. Square brackets hold non-standard residues; d marks the D form. Peptide text beside a SMILES is read from it. * marks the point of attachment. DOTA = O=C(O)CN1CCN(CC(=O)O)CCN(CC(=O)*)CCN(CC(=O)O)CC1; Phe(4-Cl) = N[C@@H](Cc1ccc(Cl)cc1)C(=O)O; hArg = N=C(N)NCCCC[C@H](N)C(=O)O; X1 = O=C(CC1CCN([*:1])CC1)[*:2]; Tle = CC(C)(C)[C@H](N)C(=O)O; Nle = CCCC[C@H](N)C(=O)O; Aib = CC(C)(N)C(=O)O
Kd overview

Some entries whose results are on file:
compound	result
CCCC[C@H](NC(=O)[C@@H]1CSSC[C@H](NC(=O)[C@H](Cc2ccccc2)NC(=O)[C@H](C)NC(=O)[C@@H](NC(C)=O)[C@@H](C)O)C(=O)N[C@@H](CCCCN)C(=O)N[C@@H](CCCNC(=N)N)C(=O)N[C@@H](C)C(=O)N2CCC[C@H]2C(=O)N1)C(=O)N[C@H](C(=O)N[C@@H](CC(=O)O)C(N)=O)[C@@H](C)O [PSM-0286] (Ac-TAFCKRAPC[Nle]TD-NH2; disulfide 4-9)	> 501 nM
C[C@@H](O)[C@H](NC(=O)[C@@H](NC(=O)[C@@H]1CSSC[C@H](NC(=O)[C@H](Cc2ccc(Cl)cc2)NC(=O)C(C)(C)NC(=O)[C@@H](NC(=O)CC2CCN(C(=O)CN3CCN(CC(=O)O)CCN(CC(=O)O)CCN(CC(=O)O)CC3)CC2)[C@@H](C)O)C(=O)N[C@@H](CCCCN)C(=O)N[C@@H](CCCCNC(=N)N)C(=O)NC(C)(C)C(=O)N[C@@H](CC(N)=O)C(=O)N1)C(C)(C)C)C(N)=O [PSM-0317] ({DOTA}-[X1]T[Aib][Phe(4-Cl)]CK[hArg][Aib]NC[Tle]T-NH2; disulfide 5-10)	< 12.6 nM

Moving on to the next compound.
**Query** API: value(readout=Kd, system=Fc-fusion protein of human PSMA (hPSMA-Fc) (Homo sapiens, UniProt Q04609)) for record CC(=O)N[C@H](C(=O)NC(C)(C)C(=O)N[C@@H](Cc1ccccc1)C(=O)N[C@H]1CSSC[C@H](C(=O)N[C@H](C(=O)N[C@H](C(N)=O)[C@@H](C)O)C(C)(C)C)NC(=O)[C@H](CC(N)=O)NC(=O)C(C)(C)NC(=O)[C@H](CCCNC(=N)N)NC(=O)[C@H](CCCCN)NC1=O)[C@@H](C)O [PSM-0331] (Ac-T[Aib]FCKR[Aib]N[dC][Tle]T-NH2; disulfide 4-9)
**Result** > 501 nM

* * *

Target: PSMA-expressing C4-2 cells (Homo sapiens, UniProt Q04609)
Construct: PSMA-expressing C4-2 cells (ATCC, Cat. No. CRL-3314) were cultured in RPMI-1640; host or cells: C4-2 cells
Sequence (Q04609 whole entry): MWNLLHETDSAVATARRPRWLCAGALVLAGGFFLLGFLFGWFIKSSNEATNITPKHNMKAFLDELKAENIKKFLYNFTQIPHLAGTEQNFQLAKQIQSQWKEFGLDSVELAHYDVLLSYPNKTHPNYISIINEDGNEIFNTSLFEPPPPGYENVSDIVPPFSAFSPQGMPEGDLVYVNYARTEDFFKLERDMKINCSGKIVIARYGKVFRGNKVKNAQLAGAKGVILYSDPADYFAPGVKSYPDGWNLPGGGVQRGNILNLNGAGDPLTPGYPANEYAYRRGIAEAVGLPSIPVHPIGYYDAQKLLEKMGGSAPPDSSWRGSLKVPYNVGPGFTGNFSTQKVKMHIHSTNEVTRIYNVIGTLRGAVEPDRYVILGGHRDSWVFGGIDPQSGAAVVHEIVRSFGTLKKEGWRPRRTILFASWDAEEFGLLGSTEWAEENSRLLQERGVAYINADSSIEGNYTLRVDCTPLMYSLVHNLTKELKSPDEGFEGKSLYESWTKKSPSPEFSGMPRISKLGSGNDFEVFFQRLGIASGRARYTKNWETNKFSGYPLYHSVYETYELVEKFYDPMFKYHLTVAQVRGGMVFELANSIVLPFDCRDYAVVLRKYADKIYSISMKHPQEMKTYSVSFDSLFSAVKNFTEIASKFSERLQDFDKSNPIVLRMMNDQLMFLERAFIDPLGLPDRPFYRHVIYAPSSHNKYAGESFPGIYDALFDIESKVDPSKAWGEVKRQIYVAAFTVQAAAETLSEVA
Assay: FACS binding assay (competition with 50 nM PSM-0183)
Settings: pIC50 category of FACS binding, C4-2 cells; read-out: pIC50 [C4-2] CAT (converted)
Numbered stars: 1 amine (or outer) side, 2 acyl side, 3 side chain; on linkers, the order of the positions; unused ones are H or OH. Bridge positions count the residues as written; N and C are the ends. Square brackets hold non-standard residues; d marks the D form. Peptide text beside a SMILES is read from it. * marks the point of attachment. DOTA = O=C(O)CN1CCN(CC(=O)O)CCN(CC(=O)*)CCN(CC(=O)O)CC1; Phe(4-CF3) = N[C@@H](Cc1ccc(C(F)(F)F)cc1)C(=O)O; Arg(Me) = CNC(=N)NCCC[C@H](N)C(=O)O; X1 = O=C(CC1CCN([*:1])CC1)[*:2]; Lys(Me) = CNCCCC[C@H](N)C(=O)O; Tle = CC(C)(C)[C@H](N)C(=O)O; Aib = CC(C)(N)C(=O)O
parameter.measured: IC50

**Query** For CNCCCC[C@@H]1NC(=O)[C@@H](NC(=O)[C@H](Cc2ccc(C(F)(F)F)cc2)NC(=O)C(C)(C)NC(=O)[C@@H](NC(=O)CC2CCN(C(=O)CN3CCN(CC(=O)O)CCN(CC(=O)O)CCN(CC(=O)O)CC3)CC2)[C@@H](C)O)CSSC[C@@H](C(=O)N[C@H](C(N)=O)C(C)(C)C)NC(=O)[C@H](CC(N)=O)NC(=O)C(C)(C)NC(=O)[C@H](CCCNC(=N)NC)NC1=O [PSM-0549] ({DOTA}-[X1]T[Aib][Phe(4-CF3)]C[Lys(Me)][Arg(Me)][Aib]NC[Tle]-NH2; disulfide 5-10) , what is its reported IC50?
**Result** < 200 nM

* * *

Target: Fc-fusion protein of human PSMA (hPSMA-Fc) (Homo sapiens)
Construct: purchased Acro Biosystems PSA-H5264
Test: Surface plasmon resonance assay (Biacore T200, single cycle kinetic)
Assay type: binding
Conditions: SPR, hPSMA-Fc, single cycle kinetic, 25° C.; category; read-out: pKD CAT (converted)
Numbered stars: 1 amine (or outer) side, 2 acyl side, 3 side chain; on linkers, the order of the positions; unused ones are H or OH. Bridge positions count the residues as written; N and C are the ends. Square brackets hold non-standard residues; d marks the D form. Peptide text beside a SMILES is read from it. * marks the point of attachment. DOTA = O=C(O)CN1CCN(CC(=O)O)CCN(CC(=O)*)CCN(CC(=O)O)CC1; Ethylenediamine = C(CN[*:2])N[*:1]; X1 = O=C(CC1CCN([*:1])CC1)[*:2]; Tle = CC(C)(C)[C@H](N)C(=O)O; 4Amb = NCc1ccc(C(=O)O)cc1; Aib = CC(C)(N)C(=O)O
parameter.measured: Kd

Example entries begin here.
molecule	Kd
CC(=O)N[C@H](C(=O)NC(C)(C)C(=O)N[C@@H](Cc1ccccc1)C(=O)N[C@H]1CSSC[C@@H](C(=O)N[C@H](C(=O)N[C@@H](CCC(=O)O)C(N)=O)C(C)(C)C)NC(=O)[C@H](CC(N)=O)NC(=O)C(C)(C)NC(=O)[C@H](CCCNC(=N)N)NC(=O)[C@H](CCCCN)NC1=O)[C@@H](C)O [PSM-0262] (Ac-T[Aib]FCKR[Aib]NC[Tle]E-NH2; disulfide 4-9)	< 12.6 nM
CC(C)(NC(=O)c1ccc(CNC(=O)CN2CCN(CC(=O)O)CCN(CC(=O)O)CCN(CC(=O)O)CC2)cc1)C(=O)N[C@@H](Cc1ccccc1)C(=O)N[C@H]1CSSC[C@@H](C(=O)N[C@H](C(=O)NCCN)C(C)(C)C)NC(=O)[C@H](CC(N)=O)NC(=O)C(C)(C)NC(=O)[C@H](CCCNC(=N)N)NC(=O)[C@H](CCCCN)NC1=O [PSM-0221] ({DOTA-4Amb}-[Aib]FCKR[Aib]NC[Tle]-Ethylenediamine; disulfide 3-8)	< 12.6 nM

In the following, a different molecule is considered.
**Query** Entry CC(C)C[C@H](NC(=O)CC1CCN(C(=O)CN2CCN(CC(=O)O)CCN(CC(=O)O)CCN(CC(=O)O)CC2)CC1)C(=O)NC(C)(C)C(=O)N[C@@H](Cc1ccccc1)C(=O)N[C@H]1CSSC[C@@H](C(=O)N[C@H](C(=O)N[C@H](C(N)=O)[C@@H](C)O)C(C)(C)C)NC(=O)[C@H](CC(N)=O)NC(=O)C(C)(C)NC(=O)[C@H](CCCNC(=N)N)NC(=O)[C@H](CCCCN)NC1=O [PSM-0220] ({DOTA}-[X1]L[Aib]FCKR[Aib]NC[Tle]T-NH2; disulfide 5-10) has what Kd?
**Result** 12.6 to 126 nM

* * *

Listed below: IC50 values for each entry.
Target: PSMA-expressing C4-2 cells (Homo sapiens, UniProt Q04609)
Construct: PSMA-expressing C4-2 cells (ATCC, Cat. No. CRL-3314) were cultured in RPMI-1640; host or cells: C4-2 cells
Test: FACS binding assay (competition with 50 nM PSM-0183)
Conditions: FACS binding, C4-2 cells, competition with 50 nM PSM-0183; category; read-out: pIC50 [C4-2] CAT (converted)
Numbered stars: 1 amine (or outer) side, 2 acyl side, 3 side chain; on linkers, the order of the positions; unused ones are H or OH. Bridge positions count the residues as written; N and C are the ends. Square brackets hold non-standard residues; d marks the D form. Peptide text beside a SMILES is read from it. * marks the point of attachment. DOTA = O=C(O)CN1CCN(CC(=O)O)CCN(CC(=O)*)CCN(CC(=O)O)CC1; Phe(4-Cl) = N[C@@H](Cc1ccc(Cl)cc1)C(=O)O; NMeR = CN[C@@H](CCCNC(=N)N)C(=O)O; X1 = O=C(CC1CCN([*:1])CC1)[*:2]; d(αMeS) = C[C@@](N)(CO)C(=O)O; Tle = CC(C)(C)[C@H](N)C(=O)O; Aib = CC(C)(N)C(=O)O

Field: example entries. Status: answers known.
molecule	IC50
CC(=O)N[C@H](C(=O)NC(C)(C)C(=O)N[C@@H](Cc1ccccc1)C(=O)N[C@H]1CSSC[C@@H](C(=O)N[C@H](C(=O)N[C@H](C(N)=O)[C@@H](C)O)C(C)(C)C)NC(=O)[C@H](CC(N)=O)NC(=O)C(C)(C)NC(=O)[C@H](CCCNC(=N)N)N(C)C(=O)[C@H](CCCCN)NC1=O)[C@@H](C)O [PSM-0235] (Ac-T[Aib]FCK[NMeR][Aib]NC[Tle]T-NH2; disulfide 4-9)	200 to 1260 nM
C[C@@H](O)[C@H](NC(=O)[C@@H](NC(=O)[C@@H]1CSSC[C@H](NC(=O)[C@H](Cc2ccc(Cl)cc2)NC(=O)[C@@](C)(CO)NC(=O)[C@@H](NC(=O)CC2CCN(C(=O)CN3CCN(CC(=O)O)CCN(CC(=O)O)CCN(CC(=O)O)CC3)CC2)[C@@H](C)O)C(=O)N[C@@H](CCCCN)C(=O)N[C@@H](CCCNC(=N)N)C(=O)NC(C)(C)C(=O)N[C@@H](CC(N)=O)C(=O)N1)C(C)(C)C)C(N)=O [PSM-0256] ({DOTA}-[X1]T[d(αMeS)][Phe(4-Cl)]CKR[Aib]NC[Tle]T-NH2; disulfide 5-10)	< 200 nM

Now let's try a different one.
**Query** What measured IC50 goes with C[C@@H](O)[C@H](NC(=O)[C@@H](NC(=O)[C@@H]1CSSC[C@H](NC(=O)[C@H](Cc2ccc(Cl)cc2)NC(=O)C(C)(C)NC(=O)[C@@H](NC(=O)CC2CCN(C(=O)CN3CCN(CC(=O)O)CCN(CC(=O)O)CCN(CC(=O)O)CC3)CC2)[C@@H](C)O)C(=O)N[C@@H](CCCCN)C(=O)N[C@@H](CCCNC(=N)N)C(=O)N[C@H](CCC(=O)O)C(=O)N[C@@H](CC(N)=O)C(=O)N1)C(C)(C)C)C(N)=O [PSM-0260] ({DOTA}-[X1]T[Aib][Phe(4-Cl)]CKR[dE]NC[Tle]T-NH2; disulfide 5-10) ?
**Result** < 200 nM
